Values from patent US20240218079A1

- Assay target: Factor XIIa (Homo sapiens, UniProt P00748)
- Sequence (P00748 373-615 limits assumed): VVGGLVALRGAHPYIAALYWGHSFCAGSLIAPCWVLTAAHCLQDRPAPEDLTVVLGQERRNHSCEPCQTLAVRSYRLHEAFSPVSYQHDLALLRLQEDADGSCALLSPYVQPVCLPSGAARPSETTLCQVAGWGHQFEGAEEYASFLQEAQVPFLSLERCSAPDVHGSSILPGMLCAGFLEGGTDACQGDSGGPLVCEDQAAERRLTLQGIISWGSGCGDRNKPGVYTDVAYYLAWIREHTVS
- Assay protocol: Serine protease inhibition assay: Factor XIIa
- Type: biochemical
- Recorded conditions: control compound, 10-dose 3-fold serial dilution starting at 10 μM or 100 uM
Where a name gives a salt, the structure may show the parent alone.
Test readout: IC50
Answer with the figure and its unit, nothing else.

Query string: Dear colleague, I am looking for the recorded IC50 of the following compound: N=C(N)c1ccc2cc(OC(=O)c3ccc(N=C(N)N)cc3)ccc2c1 [Nafamostat mesylate]
Result string: 23.2 nM

====

- Assay target: Cathepsin G (Homo sapiens)
- Sequence (P08311 21-244): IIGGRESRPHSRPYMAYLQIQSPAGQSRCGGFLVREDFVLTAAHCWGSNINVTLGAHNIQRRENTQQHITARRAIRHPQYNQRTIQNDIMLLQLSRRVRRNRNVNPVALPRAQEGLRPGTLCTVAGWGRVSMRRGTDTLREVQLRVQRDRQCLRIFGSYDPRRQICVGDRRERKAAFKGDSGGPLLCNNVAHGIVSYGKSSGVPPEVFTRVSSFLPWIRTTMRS
- Assay protocol: Serine protease inhibition assay: Cathepsin G
- Format: biochemical
- Recorded conditions: control compound, 10-dose 3-fold serial dilution starting at 10 μM or 100 uM
Test readout: IC50 (µM)
A number alone suffices; assume µM.

Query string: Return IC50 measured with Cathepsin G (Homo sapiens) given this molecule: CC(C)C[C@H](NC(=O)[C@@H](NC(=O)N[C@@H](Cc1ccccc1)C(=O)O)[C@@H]1CCN=C(N)N1)C(=O)N[C@H](C=O)Cc1ccccc1
Result string: 4.09
